Measured values drawn from paper PMC8464955 for this set.

EXPERIMENT SUMMARY: Physicochemical properties (log P, pKa), experimental data
CONDITION SUMMARY: octanol/water; read-out: Log P (octanol:water partition coefficient)
REPORTED METRIC: logP
Answer as a number with no unit attached.

Enquiry: Bench note: what logP did "Cc1nc2cc(C(=O)N(C)C)cc(O[C@H]3CCOc4cc(F)cc(F)c43)c2[nH]1" show?
Return: 3

----------
EXPERIMENT SUMMARY: Physicochemical properties (log P, pKa), experimental data
CONDITION SUMMARY: ampholyte; read-out: pKa 2
REPORTED METRIC: pKa
Answer as a number with no unit attached.

Enquiry: Bench note: what pKa did Cc1nc2cc(C(=O)N(C)C)cc(O[C@H]3CCOc4cc(F)cc(F)c43)c2[nH]1 [tegoprazan] show?
Return: 12
